Assay: NCI Yeast Anticancer Drug Screen. Data for the wt2 strain (AID 169);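 note: 0% = growth of vehicle-treated yeast cultures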
Details: S. cerevisiae wt2 strain growth inhibition; at 33.0 µM; hits give high values
The panel holds about 79,000 compounds, 15% with a hit somewhere; the sample as a whole holds those more often. Activity calls are given as the source filed them. Cut-off read from the data, not from the text of the source: active = growth inhibition above about 70%; inactive = the rest.
Assignment: determine reported growth inhibition for the given compounds.

Solved entries:
C/C(=N\OCC(O)CNCCSCc1ccccc1)c1ccccc1Cl (centres undefined) ... 30% (inactive)
O=C(NCCNCCNC(=O)c1cc(-c2ccccc2)nc2ccccc12)c1cc(-c2ccccc2)nc2ccccc12 ... -2% (inactive)

Batch lookup, growth inhibition per entry.
1. Cc1cc2nc3ccccc3n2c2ccccc12
2. COc1ccc(N=c2cc(-c3ccccc3)oc3ccccc23)cc1

Result:
1: -23% (inactive); 2: -3% (inactive)

###

Assay: NCI Yeast Anticancer Drug Screen. Data for the rad18 strain (AID 177)
Conditions: S. cerevisiae rad18 mutant growth inhibition; at 33.0 µM
Compounds without any hit were thinned out: in the full panel of roughly 79,000, 15% have a hit. Activity calls are given as the source filed them. No stated cut-off is given here; in the data, active means growth inhibition above about 70%; inactive means the rest.
Parameter call: string, one of active, inactive

O=C(NO)c1coc2ccccc2c1=O ... inactive
O=C(O)C(=Cc1ccc(-c2ccccc2)cc1)C(=O)O ... active
CCCCCCNCCCNc1c2ccccc2nc2cccc([N+](=O)[O-])c12 ... active

Task: Per the records of this test, what outcome belongs to CCCN=Cc1cc(Cc2ccc(O)c(C=NCCC)c2)ccc1O ?
Result: active

Task: Outcome logged for CCC(/C=C/c1ccccc1)=N\Nc1ccc(Cl)c(Cl)c1 in this assay:
Result: inactive

###

Task for the reader: assign each of the following compounds its reported growth inhibition.
Experiment: NCI Yeast Anticancer Drug Screen. Data for the rad14 strain (AID 159);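 note: 0% = growth of vehicle-treated control cultures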
Conditions: S. cerevisiae rad14 strain growth inhibition; at 11.0 µM; hits give high values
The panel holds about 79,000 compounds, 15% with a hit somewhere; the sample as a whole holds those more often. The source made the active and inactive calls. Cut-off read from the data, not from the text of the source: active = growth inhibition above about 70%; inactive = the rest.

# per-item lookup of growth inhibition; items listed below
1. CCCCCCCCCCCNC=O
2. ClCCCOc1c(Cl)cc(Cl)cc1Cl
3. COC(=O)/C(C#N)=C\NC(=S)C(N)=S
4. CC1=CC(C)(C)SC(SSSC2=NC(C)=CC(C)(C)S2)=N1

Result:
-4% (inactive)
5% (inactive)
98% (active)
-3% (inactive)

###

Can you tell me growth inhibition for the items I'm about to list?
Test: NCI Yeast Anticancer Drug Screen. Data for the sgs1 strain (AID 173);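 note: 0% = growth of vehicle-only control cultures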
Settings: S. cerevisiae sgs1 mutant, at 11.0 µM, hits give high values
The panel holds about 79,000 compounds, 15% with a hit somewhere; the sample as a whole holds those more often.
Answers are plain numbers, in %.

COc1cccc(/C=C2\S/C(=N/Nc3nc(-c4ccc([N+](=O)[O-])cc4)cs3)NC2=O)c1O ... 50

# return growth inhibition for each item in the list
1. Oc1c2c(c(O)c3ccccc13)C1(N=N2)c2ccccc2Oc2ccccc21
2. COC(=O)C(=O)c1c(-c2ccc(Cl)c(Cl)c2)[nH]c2[nH]n(-c3ccccc3)c(=O)c2c1=O
3. CCCCCCCCCCCCOCCOCCOCC(N)=O

Result:
1: 98; 2: 60; 3: -5

Hey, can you go through the list below and give me growth inhibition for every item?
1. CC(C)OC(=O)NNc1c(Cl)cc(Cl)cc1Cl
2. CC(C)=CCc1c2c(c(O)c3c(=O)c(-c4ccc(O)c(O)c4)coc13)C=CC(C)(C)O2
3. COC1=CCC23C(=O)C=CC(=O)C2(C1)C(=O)c1ccccc1C3=O (stereo not given)
4. CN1C(=O)C(CC(=O)O)NC1=S (stereo not given)
5. Cc1ccc(C)c(C(=N)c2ccccc2Cc2ccccc2)c1

Result:
1. 0
2. 91
3. 24
4. 9
5. 86

Task: Form field: reported growth inhibition of S=C(NCc1ccccn1)N/N=C/c1ccccn1
Result: 98

###

Experiment: NCI Yeast Anticancer Drug Screen. Data for the mlh1 strain (AID 171);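 note: 0% = growth of vehicle-treated control cultures of the same strain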
Conditions: S. cerevisiae mlh1 strain growth inhibition; at 11.0 µM; hits give high values
This is part of a sample that, as a whole, favours compounds with a hit. Of some 79,000 tested, about 15% had one in any assay.
Label n if growth inhibition falls below 10%; label y in every other case.

# count of solved cases: 5
Nc1cc2c(cc1N)-c1ccccc1C2=O ... n
CC1=CC(=C(c2ccc(N)c(C)c2)c2ccc(N)c(C)c2)C=CC1=N ... y
CCCCCCCCCCCCCCN ... n
OC1(c2ccccc2)C2CC=CC2C1(c1ccccc1)c1ccccc1 (stereo not drawn) ... n
O=C1C2=C(c3ccccc31)C(c1ccccc1)N1C(=O)CSC1=N2 (stereo not drawn) ... n

Task: # bool: growth inhibition of O=CC1(F)CC1(c1ccccc1)c1ccccc1 (stereo not drawn) >= 10%
Result: n

Task: Check this molecule for growth inhibition at or above 10%: CCCCCCNCCCNc1c2cc(OC)ccc2nc2cccc([N+](=O)[O-])c12
Result: y

Task: Is reported growth inhibition greater than or equal to 10% here: O=C1/C(=C/c2ccc(Cl)c(Cl)c2)CNC/C1=C\c1ccc(Cl)c(Cl)c1
Result: y

Task: Exam item: decide whether the reported growth inhibition for CCN(CC)C(=S)SC(=S)N(CC)CC is at least 10%.
Result: n

Task: State whether the measured growth inhibition reaches 10%, counting equality as reaching it, for O=C(Nc1cccs1)c1ccccc1
Result: n

Task: Record O=C1CCC(Cc2ccccc2)CN1 (stereo not drawn) ; criterion: growth inhibition no lower than 10%. Met?
Result: n

Task: In plain terms: is recorded growth inhibition at least 10% for CC(C)OC(=O)NNc1cccc(Cl)c1 ?
Result: y

Task: growth inhibition >= 10% for Cc1cc(C)c2[s+]snc2c1 ?
Result: n

###

Assay: NCI Yeast Anticancer Drug Screen. Data for the rad52 strain (AID 147);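 note: 0% = growth of vehicle-treated control cultures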
Details: S. cerevisiae rad52 mutant growth inhibition; at 11.0 µM; hits give high values
Protocol: Growth inhibition of yeast strains with defined genetic alterations is measured as a screen for potential anti-cancer activity. Selected strains with alterations in DNA damage repair or cell cycle control were exposed to compounds and growth inhibition was measured relative to vehicle treated controls. The strain used in this assay is rad52
Compounds without any hit were thinned out: in the full panel of roughly 79,000, 15% have a hit.
Assignment: determine reported growth inhibition for the given molecules.
One number for each entry, in %.

CCN(CC)CC(=O)c1ccc2cc(Cl)c3ccccc3c2c1 ... 99
CCOP(=O)(OCC)/C(C#N)=C/c1cccc(Oc2ccccc2)c1 ... 60
CC(=O)N1C=Cc2c(c(C)c3c([nH]c4ccccc43)c2C)C1 ... 95

List growth inhibition for every entry below, keeping the order given.
1. CCCCCCCCN1COCC(COc2ccccc2C)OC1 (centres undefined)
2. CC1=NN(C(=O)CC(=O)NC(=O)/C=C\c2ccccc2)C(=O)C1N=Nc1ccc([N+](=O)[O-])cc1 (centres undefined)
3. CC(C)=CCC/C(C)=C/CN1C(=O)C=CC1=O

Result:
1
56
99

###

Assay: NCI Yeast Anticancer Drug Screen. Data for the cln2 rad14 strain (AID 165);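 note: 0% = growth equal to vehicle treated cultures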
Details: S. cerevisiae cln2 rad14 strain, at 5.0 µM (retest, dose inferred, filed as 0.5), hits give high values
The panel holds about 79,000 compounds, 15% with a hit somewhere; the sample as a whole holds those more often.
Would you mind telling me the reported growth inhibition of each entry?
One number for each entry, in %.

COc1ccccc1/C=C\C(=O)C1COCN1 (centres undefined) ... -57

Each compound below has a recorded value; state its growth inhibition.
1. CC1C(c2ccccc2)SC(=N)N1C (centres undefined)
2. Fc1cc(F)c(F)c(S)c1F
3. COC(=O)C(Cl)(Cl)N=Nc1c(Cl)cc(Cl)c(C)c1Cl
4. c1ccc2c(c1)N=C1CCCC3CCCC123 (centres undefined)
5. CC1=CC(C)(C)SC(SSSC2=NC(C)=CC(C)(C)S2)=N1
6. Nc1cc2ccccc2cc1N
7. O=C(O)c1c2ccc(Cl)cc2nc2[nH]c(=O)[nH]c(=O)c12

Result:
1. 1
2. 43
3. 2
4. -67
5. -9
6. 21
7. 64

Batch lookup, growth inhibition per entry.
1. CCN(CC)CC(=O)c1ccc2cc(Cl)c3ccccc3c2c1
2. CC1=CC(=O)C=CC1=Nc1cc(Cl)c(O)c(Cl)c1
3. C=C(C(=O)OC)N1C(=O)CC(C)C1=O (centres undefined)
4. COc1ccc(C(OCC2OC(n3cnc4c(=O)n(Cc5ccccc5[N+](=O)[O-])nnc43)C(O)C2O)(c2ccccc2)c2ccc(OC)cc2)cc1 (centres undefined)
5. CC(=O)NC(c1nc2cc(C)c(C)cc2[nH]1)c1nc2cc(C)c(C)cc2[nH]1
6. COc1ccc(C2CC(C)(N3CCCC3)Oc3cc4c(cc32)OCO4)cc1 (centres undefined)
7. CCCCCCCCCCCCCCN
8. O=C1Nc2ccc(Br)cc2C1=Nc1ccc(Cl)cc1

Result:
1. 6
2. 48
3. 6
4. 2
5. 51
6. 8
7. 24
8. 36

Dear colleague, could you please provide growth inhibition for the compounds listed below?
1. C1=CCN([B-](c2ccccc2)[C+]2CCCCC2)C=C1
2. O=[N+]([O-])c1ccc(/C=C\c2ccc3c(c2)OCO3)c([N+](=O)[O-])c1
3. O=[N+]([O-])c1cn[n+]([O-])c2ccccc12
4. O=C(O)C(=Cc1ccc(-c2ccccc2)cc1)C(=O)O
5. O=C(Nc1cccs1)c1ccccc1
6. COc1ccc(/C=C2\SC(=S)N(/C=C3\C(=O)N(c4ccccc4)N=C3C)C2=O)cc1OC
7. c1c[nH]c(CN2CCN(Cc3ncc[nH]3)CC2)n1
8. COc1ccc(C(C)c2cc3c(cc2OCC(C)=O)OCO3)cc1 (centres undefined)

Result:
-1
2
7
46
-65
-5
-69
-6

// for each compound below, give its growth inhibition
1. O=[N+]([O-])c1ccc(C(c2c[nH]c3ccccc23)c2c[nH]c3ccccc23)cc1
2. O=C(O)C1CCCCC1c1c2ccc(=O)cc-2oc2cc(O)ccc12 (centres undefined)
3. CCO/C=C1\SC(=S)N(c2ccc(OCC)cc2)C1=O
4. O=CC1(F)CC1(c1ccccc1)c1ccccc1 (centres undefined)

Result:
1. 14
2. 43
3. 26
4. -1
